Biological target: T1, Human CD137 ECD (human)
T1 construct: entry includes C-terminal His-tag and biotin acceptor peptide; also called human CD137 extracellular domain; 4-1BB
T1 sequence (chain, as listed by the source limits assumed): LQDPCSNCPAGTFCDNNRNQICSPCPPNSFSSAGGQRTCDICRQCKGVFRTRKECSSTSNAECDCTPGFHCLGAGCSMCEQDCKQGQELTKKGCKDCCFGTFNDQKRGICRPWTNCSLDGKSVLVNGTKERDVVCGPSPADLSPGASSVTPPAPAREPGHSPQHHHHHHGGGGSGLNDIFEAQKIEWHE
Test: Biacore SPR, vs parent H183/L072
Catalogue of binders with associated fold change of affinity
Unit fold implied. Number only.

binder | unit_label | fold change of affinity
H183/L072 VL T92S (antibody, name in Kabat numbering, V domains shown, Dual-Ig) VH: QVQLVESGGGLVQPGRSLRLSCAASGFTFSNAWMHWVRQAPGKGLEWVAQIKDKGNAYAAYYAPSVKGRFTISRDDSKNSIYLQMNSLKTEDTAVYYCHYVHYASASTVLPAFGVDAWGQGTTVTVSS VL: DIVMTQSPLSLPVTPGEPASISCQASQELVHMNRNTYLHWYQQKPGQAPRLLIYKVSNRFPGVPDRFSGSGSGTDFTLKISRVEAEDVGVYYCAQGSSVPFTFGQGTKLEIK | fold | 0
H183/L072 VL Y32Q (antibody, name in Kabat numbering, V domains shown, Dual-Ig) VH: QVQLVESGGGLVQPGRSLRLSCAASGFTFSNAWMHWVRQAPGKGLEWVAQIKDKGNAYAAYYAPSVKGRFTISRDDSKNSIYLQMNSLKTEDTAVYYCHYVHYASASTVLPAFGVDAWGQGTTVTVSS VL: DIVMTQSPLSLPVTPGEPASISCQASQELVHMNRNTQLHWYQQKPGQAPRLLIYKVSNRFPGVPDRFSGSGSGTDFTLKISRVEAEDVGVYYCAQGTSVPFTFGQGTKLEIK | fold | 0.2

Req: May I ask what fold change of affinity has been recorded for H183/L072 VL K50L (antibody, name in Kabat numbering, V domains shown, Dual-Ig) VH: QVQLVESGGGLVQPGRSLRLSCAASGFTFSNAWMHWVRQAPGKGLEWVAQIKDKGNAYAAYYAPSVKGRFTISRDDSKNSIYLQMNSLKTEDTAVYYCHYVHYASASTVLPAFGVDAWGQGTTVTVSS VL: DIVMTQSPLSLPVTPGEPASISCQASQELVHMNRNTYLHWYQQKPGQAPRLLIYLVSNRFPGVPDRFSGSGSGTDFTLKISRVEAEDVGVYYCAQGTSVPFTFGQGTKLEIK ?
Resp: 1
